Assay: chemical genetic growth profiling, strain panel (AID 1159580);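 also: tested at 20 µM; growth read once vehicle control cultures reached saturation at 30 °C; lower values mean less growth of the strain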
Conditions: S. cerevisiae deletion strains, growth OD, locus YJR066W, strain TOR1
Screen size: about 5,500 compounds; about 2,000 (36%) were called active. Roughly 18% stayed inconclusive and do not appear here. Rule as the data show it: active = normalized growth mostly below about 0.91 (no sharp cut-off); inconclusive = no clear call, values can overlap the other calls; inactive = mostly above about 0.92. The list shows a part of the results.
Classes used: active, inactive

molecule	qualitative-label
COc1cc2ccc(=O)oc2cc1O	inactive
CC(C)(O)CC[C@@H](O)[C@](C)(O)C1CC[C@@]2(O)C3=CC(=O)C4C[C@@H](O)[C@@H](O)C[C@]4(C)C3CC[C@]12C (stereo not given in full)	inactive
CC1(C)C[C@@H]2C(=O)CC[C@H]3O[C@]3(C)CC[C@H]21	inactive
O=C(O)c1cc2cc(Cl)ccc2[nH]1	inactive
Fc1ccc(C(c2ccc(F)cc2)N2CCN(C/C=C/c3ccccc3)CC2)cc1	inactive
Fc1ccc(Nc2nc(-c3ccc(F)c(F)c3)cs2)c(F)c1	active
N#C/C(=C\c1ccc(O)cc1)C(=O)O	inactive
CSc1nc(Sc2n[nH]c(-c3ccccc3)n2)cc(Sc2n[nH]c(-c3ccccc3)n2)n1	inactive
CCOC(=O)C(NC(C)=O)(Nc1ccc(F)c(Cl)c1)C(F)(F)F (stereo not given)	inactive
C(=NC(N=Cc1ccccc1)c1ccccc1)c1ccccc1 (stereo not given)	inactive
CC1=C(C(=O)O)N2C(=O)[C@@H](NC(=O)[C@H](N)C3=CCC=CC3)C2SC1 (stereo not given in full)	inactive
COc1cc2ccc(=O)oc2c(O)c1O	inactive
Cc1nc(C(F)(F)F)ccc1-c1nnc(SC(=O)c2ccc(Cl)cc2)o1	inactive
C[N+]1(C)CCc2cc3c(cc2[C@H]1C1OC(=O)c2c1ccc1c2OCO1)OCO3 (stereo not given in full)	inactive
CCOC(=O)C(O)(c1ccc(NC(=O)Nc2ccc(Cl)cc2)cc1)C(F)(F)F (stereo not given)	inactive
O=C(Oc1ccc(C2SCCS2)cc1)c1cccs1	inactive
COc1ccc(/C(C#N)=C2C=C/C(=N/O)C(Cl)=C\2)cc1	inactive
C[C@]12C=CC(=O)C=C1CCC1C2C(=O)C[C@@]2(C)C1CC[C@]2(O)C(=O)CO (stereo not given in full)	inactive
COC(=O)C1=CO[C@@H](O[C@@H]2O[C@H](CO)[C@@H](O)[C@H](O)[C@H]2O)[C@@H]2[C@@H](C)[C@@H](O)C[C@H]12	inactive
c1coc(CNc2ncnc3nc[nH]c23)c1	inactive
COc1cc(OC)c2c(c1Cl)OC1(C2=O)C(O)=CC(=O)CC1C (stereo not given)	inactive
Nc1ncnc2nc[nH]c12	inactive
O=C(Nc1ccc(Cl)cc1)c1csc([N+](=O)[O-])c1	inactive
CC(C)=CCOc1cc2oc(=O)ccc2cc1O	inactive
Nc1ncnc2c1ncn2[C@@H]1O[C@H](CO)[C@@H](O)[C@@H]1O	inactive
CC(C)N=c1cc2n(-c3ccc(Cl)cc3)c3ccccc3nc-2cc1Nc1ccc(Cl)cc1	inactive
COc1cc(OC)c2c(=O)c(-c3ccc4c(c3)OCO4)coc2c1	inactive
CCS(=O)(=O)CCn1c([N+](=O)[O-])cnc1C	inactive
N/C(=N/OC(=O)c1ccccc1Cl)c1ccc2nonc2c1	inactive
CCOc1ccc(Cc2nccc3cc(OCC)c(OCC)cc23)cc1OCC	inactive
CCOC(=O)C1C(c2ccc(Br)cc2)C(C(=O)OCC)C(O)(C(F)(F)F)NC1(O)C(F)(F)F (stereo not given)	inactive
CC(C)=CCOc1c2occc2cc2ccc(=O)oc12	inactive
CC(C)(CO)[C@@H](O)C(=O)NCCC(=O)O	inactive
O=C(CCCN1CC=C(n2c(=O)[nH]c3ccccc32)CC1)c1ccc(F)cc1	inactive
Nc1ccc(N2CCN(c3ccc(C(F)(F)F)cn3)CC2)nc1	inactive
